# target.desc: Serine/threonine-protein kinase STK11 (Homo sapiens) (UniProt Q15831)
# Sequence (Q15831 whole entry): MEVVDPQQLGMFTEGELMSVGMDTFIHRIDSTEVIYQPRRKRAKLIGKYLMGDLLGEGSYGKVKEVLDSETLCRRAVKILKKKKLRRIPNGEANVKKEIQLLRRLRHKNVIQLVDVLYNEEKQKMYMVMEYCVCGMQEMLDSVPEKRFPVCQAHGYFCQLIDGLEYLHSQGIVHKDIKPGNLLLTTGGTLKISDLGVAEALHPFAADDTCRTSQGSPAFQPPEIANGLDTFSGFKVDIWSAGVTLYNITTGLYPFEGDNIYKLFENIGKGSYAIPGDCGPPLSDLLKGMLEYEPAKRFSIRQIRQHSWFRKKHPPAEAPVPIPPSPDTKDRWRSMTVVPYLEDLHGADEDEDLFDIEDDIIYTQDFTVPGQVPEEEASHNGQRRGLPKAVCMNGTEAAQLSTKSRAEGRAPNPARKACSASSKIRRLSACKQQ
# condition.description: at 10 µM
reported.endpoint: residual activity (%)
Give bare numbers, in %.

- compound: "COc1ccc2c(c[n+](C)c3c4cc5c(cc4ccc23)OCO5)c1OC"
  residual activity [%]: 90
- compound: "C[S+]([O-])c1ccc(-c2nc(-c3ccc(F)cc3)c(-c3ccncc3)[nH]2)cc1 (stereo unspecified)"
  residual activity [%]: 85
- compound: "CC(C)[C@H](CO)Nc1nc(Nc2cccc(Cl)c2)c2ncn(C(C)C)c2n1"
  residual activity [%]: 86
- compound: "COc1cc(OC)c(/C=C2\\C(=O)Nc3ccccc32)c(OC)c1"
  residual activity [%]: 90
- compound: "O=C1c2ccccc2-c2nc3nnnn3nc21"
  residual activity [%]: 101
- compound: "O=[N+]([O-])/C=C/c1ccc2c(c1)OCO2"
  residual activity [%]: 95
- compound: "COc1ccc2c(c1)/C(=C/c1cnc[nH]1)C(=O)N2"
  residual activity [%]: 24
- compound: "O=C1Nc2ccc3ncsc3c2/C1=C/c1c[nH]cn1"
  residual activity [%]: 1

Hi team, please reply with residual activity for each item in this list.
1. COc1cc2ncnc(Nc3ccc(OCc4ccccc4)cc3)c2cc1OC
2. CCn1cnc2c(Nc3cccc(Cl)c3)nc(N[C@@H]3CCCC[C@@H]3N)nc21
3. COC(=O)[C@@]1(O)C[C@H]2O[C@]1(C)n1c3ccccc3c3c4c(c5c6ccccc6n2c5c31)C(=O)NC4

1: 98; 2: 90; 3: 74
